Data origin, for the record: patent US20240228482A1

As shown below, each of these compounds has a reported IC50 value.
# tested.system: CBL-B (Homo sapiens)
# Construct: GST
# assay.protocol: CBL-B TR-FRET IC50 screening (E1/E2 ubiquitination, Biotin-Ubiquitin, Anti GST-Tb donor / Streptavidin-d2 acceptor)
# Format: biochemical
# measurement.parameters: second part of Table 2 (head 'Patent Cmpd No / Updated Activity'); same CBL-B TR-FRET IC50 bins A-F; read-out: Updated Activity

compound: C[C@@H]1CN(Cc2cc(C(F)(F)F)c3cn(-c4cccc([C@@H](c5nncn5C)C5CC5)c4)c(=O)n3c2)CCO1
tested.system: CBL-B (Homo sapiens)
readout: IC50
recorded.measurement: > 10000 nM
//
compound: COC(=O)N(C)Cc1cc(C(F)(F)F)c2cn(-c3cccc([C@H](c4nncn4C)C4CCC4)c3)c(=O)n2c1
tested.system: CBL-B (Homo sapiens)
readout: IC50
recorded.measurement: < 100 nM
//
compound: C[C@@H]1CN(Cc2cc(C(F)(F)F)c3cn(-c4cc(C#N)cc([C@H](c5nncn5C)C5CCC5)c4)c(=O)n3c2)CCO1 (single isomer, unassigned)
tested.system: CBL-B (Homo sapiens)
readout: IC50
recorded.measurement: < 100 nM
//
compound: [2H]C([2H])(c1cc(C(F)(F)F)c2cn(-c3cccc([C@H](c4nncn4C)C4CCC4)c3)c(=O)n2c1)N1CCC(C)(F)CC1
tested.system: CBL-B (Homo sapiens)
readout: IC50
recorded.measurement: < 100 nM
//
compound: Cn1cnnc1[C@@H](c1cccc(-n2cc3c(C(F)(F)F)cc(CN4CC(C#N)C4)cn3c2=O)c1)C1CCC1
tested.system: CBL-B (Homo sapiens)
readout: IC50
recorded.measurement: < 100 nM

Prompt line: Suppose we examine the compound C[C@H]1CCCN(Cc2cc(C(F)(F)F)c3cn(-c4cccc(C5(c6nncs6)CCC5)c4)c(=O)n3c2)C1 ; what IC50 value has been reported?
Response line: < 100 nM

Prompt line: // query: CN1CCN(Cc2cc(C(F)(F)F)c3cn(-c4cccc([C@H](c5nncn5C)C5CCC5)c4)c(=O)n3c2)S1(=O)=O
Response line: < 100 nM

###

# tested.system: CBL-B (Homo sapiens)
# Construct: GST
# assay.protocol: CBL-B TR-FRET IC50 screening (E1/E2 ubiquitination, Biotin-Ubiquitin, Anti GST-Tb donor / Streptavidin-d2 acceptor)
# Type: biochemical
# measurement.parameters: CBL-B 10 nM final; 11-point titration from 100 uM; binned A-F; read-out: CBL-B TR-FRET activity IC50
readout: IC50

As a guide, the following entries are already answered.
compound: O=c1n(-c2cccc(C3(Cc4nncn4C(F)F)COC3)c2)cc2c(C(F)(F)F)cc(CN3CCC4(CC4)C3)cn12 [Compound 91]
tested.system: CBL-B (Homo sapiens)
IC50: < 100 nM

compound: COC1CCN(Cc2cc(C(F)(F)F)c3cn(-c4cccc(C5(Cc6nncn6C)COC5)c4)c(=O)n3c2)CC1 [Compound 49]
tested.system: CBL-B (Homo sapiens)
IC50: < 100 nM

compound: COC(=O)N1CCN(Cc2cc(C(F)(F)F)c3cn(-c4cccc([C@@H](c5nncn5C)C5CCC5)c4)c(=O)n3c2)CC1 [Compound 351_P1]
tested.system: CBL-B (Homo sapiens)
IC50: 1000 to 3000 nM

compound: [2H]C([2H])([2H])n1cnnc1CC1(c2cccc(-n3cc4c(C(F)(F)F)cc([C@H](C)N5CCC[C@H](C)C5)cn4c3=O)c2)COC1 [Compound 278_P1]
tested.system: CBL-B (Homo sapiens)
IC50: < 100 nM

compound: CN(CCO)Cc1cc(C(F)(F)F)c2cn(-c3cccc(C4(Cc5nncn5C)COC4)c3)c(=O)n2c1 [Compound 76]
tested.system: CBL-B (Homo sapiens)
IC50: 100 to 300 nM

compound: COC1(CNCc2cc(C(F)(F)F)c3cn(-c4cccc(C5(Cc6nncn6C)COC5)c4)c(=O)n3c2)CC1 [Compound 252]
tested.system: CBL-B (Homo sapiens)
IC50: < 100 nM

Prompt line: Quick one: IC50 for Cc1conc1[C@@H](c1cccc(-n2cc3c(C(F)(F)F)cc(CN4CCC[C@H](C)C4)cn3c2=O)c1)C1CCC1 (single isomer, unassigned) [Compound 303] ?
Response line: > 10000 nM

Prompt line: Then COC1(C[C@H](c2cccc(-n3cc4c(C(F)(F)F)cc(CN5CCC[C@H](C)C5)cn4c3=O)c2)c2nncn2C)CC1 (single isomer, unassigned) [Compound 366] ?
Response line: > 10000 nM

Prompt line: Could you do the same for C[C@H]1CCCN(Cc2cc(C(F)(F)F)c3cn(-c4cccc([C@@H](CC5CCC5)c5nncn5C)c4)c(=O)n3c2)C1 [Compound 352_P2] , please?
Response line: 100 to 300 nM

###

# tested.system: CBL-B (Homo sapiens)
# Construct: GST
# assay.protocol: CBL-B TR-FRET IC50 screening (E1/E2 ubiquitination, Biotin-Ubiquitin, Anti GST-Tb donor / Streptavidin-d2 acceptor)
# Assay type: biochemical
# measurement.parameters: second part of Table 2 (head 'Patent Cmpd No / Updated Activity'); same CBL-B TR-FRET IC50 bins A-F; read-out: Updated Activity
pIC50: −log10 of the molar value.
Listing of entries alongside the reported pIC50.

compound: Cn1cnnc1[C@@H](c1cc(-c2ccns2)cc(-n2cc3c(C(F)(F)F)cccn3c2=O)c1)C1CCC1 (single isomer, unassigned) [Compound 459]
tested.system: CBL-B (Homo sapiens)
pIC50: < 5.00

Prompt line: I have this compound here, C[C@H]1CCCN(Cc2cc(C(F)(F)F)c3cn(-c4cc([C@@H](c5nncn5C)C5CCC5)ccn4)c(=O)n3c2)C1 [Compound 627_P1] , and I need its recorded pIC50.
Response line: > 7.00

Prompt line: Now consider Cn1cnnc1[C@H](c1cc(-c2ccnnc2)cc(-n2cc3c(C(F)(F)F)cccn3c2=O)c1)C1CCC1 (single isomer, unassigned) [Compound 443] .
Response line: < 5.00

###

# tested.system: CBL-B (Homo sapiens)
# Construct: GST
# assay.protocol: CBL-B TR-FRET IC50 screening (E1/E2 ubiquitination, Biotin-Ubiquitin, Anti GST-Tb donor / Streptavidin-d2 acceptor)
# Assay type: biochemical
# measurement.parameters: CBL-B 10 nM final; 11-point titration from 100 uM; binned A-F; read-out: CBL-B TR-FRET activity IC50
The entries below come with measured IC50 values attached.

A selection of reference data follows.
compound: CO[C@H]1CCCN(Cc2cc(C(F)(F)F)c3cn(-c4cccc([C@H](c5nncn5C)C5CCC5)c4)c(=O)n3c2)C1
tested.system: CBL-B (Homo sapiens)
IC50: < 100 nM
//
compound: CO[C@@H]1CCN(Cc2cc(C(F)(F)F)c3cn(-c4cccc([C@H](c5nncn5C)C5CCC5)c4)c(=O)n3c2)C1
tested.system: CBL-B (Homo sapiens)
IC50: < 100 nM

Prompt line: Give CBL-B (Homo sapiens) IC50 for C[C@H]1CCCN1Cc1cc(C(F)(F)F)c2cn(-c3cccc([C@@H](c4nncn4C)C4CCC4)c3)c(=O)n2c1
Response line: 1000 to 3000 nM

Prompt line: Now try CN(C)C(=O)C1CN(Cc2cc(C(F)(F)F)c3cn(-c4cccc([C@H](c5nncn5C)C5CCC5)c4)c(=O)n3c2)C1 .
Response line: < 100 nM

###

# tested.system: CBL-B (Homo sapiens, UniProt Q13191)
# Construct: GST
# Sequence (Q13191 whole entry): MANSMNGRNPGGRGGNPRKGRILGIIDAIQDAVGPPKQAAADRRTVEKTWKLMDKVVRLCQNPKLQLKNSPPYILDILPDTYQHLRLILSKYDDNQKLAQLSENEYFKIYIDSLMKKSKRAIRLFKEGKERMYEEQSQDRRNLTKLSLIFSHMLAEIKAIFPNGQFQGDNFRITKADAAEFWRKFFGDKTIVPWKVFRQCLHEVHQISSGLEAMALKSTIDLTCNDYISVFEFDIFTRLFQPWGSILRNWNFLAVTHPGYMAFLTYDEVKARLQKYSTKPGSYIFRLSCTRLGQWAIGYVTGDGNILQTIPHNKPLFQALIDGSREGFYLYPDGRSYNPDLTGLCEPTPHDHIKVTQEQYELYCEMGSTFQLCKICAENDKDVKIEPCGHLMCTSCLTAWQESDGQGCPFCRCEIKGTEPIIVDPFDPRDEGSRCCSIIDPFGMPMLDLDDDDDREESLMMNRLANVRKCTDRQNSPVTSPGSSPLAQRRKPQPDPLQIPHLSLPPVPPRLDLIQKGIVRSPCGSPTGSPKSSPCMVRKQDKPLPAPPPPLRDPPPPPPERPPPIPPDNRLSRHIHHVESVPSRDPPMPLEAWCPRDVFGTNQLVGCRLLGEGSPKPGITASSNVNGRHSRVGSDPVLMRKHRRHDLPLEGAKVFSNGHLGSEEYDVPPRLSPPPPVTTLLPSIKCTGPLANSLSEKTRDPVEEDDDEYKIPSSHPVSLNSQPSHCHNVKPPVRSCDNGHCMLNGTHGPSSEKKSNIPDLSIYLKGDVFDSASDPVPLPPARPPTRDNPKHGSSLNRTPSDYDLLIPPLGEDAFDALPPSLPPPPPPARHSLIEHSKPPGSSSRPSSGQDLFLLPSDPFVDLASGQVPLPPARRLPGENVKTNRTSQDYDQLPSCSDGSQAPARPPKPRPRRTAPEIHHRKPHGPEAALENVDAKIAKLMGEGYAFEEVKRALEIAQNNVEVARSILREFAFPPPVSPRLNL
# assay.protocol: CBL-B TR-FRET IC50 screening (E1/E2 ubiquitination, Biotin-Ubiquitin, Anti GST-Tb donor / Streptavidin-d2 acceptor)
# Assay type: biochemical
# measurement.parameters: second part of Table 2 (head 'Patent Cmpd No / Updated Activity'); same CBL-B TR-FRET IC50 bins A-F; read-out: Updated Activity
pIC50: −log10 of the molar value.
readout: pIC50

Here are 5 compounds together with their reported answers.
compound: C[C@@H]1CN(Cc2cc(C(F)(F)F)c3cn(-c4cc(C#N)cc([C@@H](c5nncn5C)C5CCC5)c4)c(=O)n3c2)CCO1 (single isomer, unassigned)
tested.system: CBL-B (Homo sapiens, UniProt Q13191)
readout: pIC50
recorded.measurement: < 5.00
--
compound: C[C@H]1CCCN(Cc2cc(C(F)(F)F)c3cn(-c4cccc(Cc5cccnn5)c4)c(=O)n3c2)C1
tested.system: CBL-B (Homo sapiens, UniProt Q13191)
readout: pIC50
recorded.measurement: < 5.00
--
compound: COC(=O)N1CC[C@@H](c2cc(C(F)(F)F)c3cn(-c4cccc([C@H](c5nncn5C)C5CCC5)c4)c(=O)n3c2)C1 (single isomer, unassigned)
tested.system: CBL-B (Homo sapiens, UniProt Q13191)
readout: pIC50
recorded.measurement: > 7.00
--
compound: COC1CN([C@@H](c2cccc(-n3cc4c(C(F)(F)F)cc(CN5CCC[C@H](C)C5)cn4c3=O)c2)c2nncn2C)C1 (single isomer, unassigned)
tested.system: CBL-B (Homo sapiens, UniProt Q13191)
readout: pIC50
recorded.measurement: < 5.00
--
compound: Cn1cnnc1C1(c2cccc(-n3cc4c(C(F)(F)F)cc(CN5CCC(C)(F)CC5)cn4c3=O)c2)CCC1
tested.system: CBL-B (Homo sapiens, UniProt Q13191)
readout: pIC50
recorded.measurement: > 7.00

Next:
Prompt line: Suppose we examine the compound CO[C@H]1C[C@](c2cccc(-n3cc4c(C(F)(F)F)cc([C@@H](C)N5CCC(F)CC5)cn4c3=O)c2)(c2nncn2C)C1 (single isomer, unassigned) ; what pIC50 value has been reported?
Response line: 6.52 to 7.00
